Origin of measurements: the Deep4Chem optical property database

Test: solvent given as SMILES
Conditions: in CC#N
In this section, each of the molecules is paired with its reported absorption maximum.
observable: absorption maximum (nm)

1. N#Cc1ccc(N)cc1	272.85
2. COc1ccc(/C=C(\C#N)c2nc(-c3ccc(Cl)cc3)cs2)cc1	373
3. COc1ccc(-c2csc(/C(C#N)=C/c3ccc([N+](=O)[O-])cc3)n2)cc1	399
4. Cc1cc(=O)oc2cc3c4ccccc4c4ccccc4c3cc12	375
5. C[C@]12SC(=O)C=C1c1nc(-c3ccc(O)cc3)[nH]c1C1=CC(=O)S[C@@]12C	470
6. C#CCn1c2ccccc2c2cc(/C=C/c3c(Cl)c(C)c4n3[B-](F)(F)[N+]3=C(C)C(Cl)=C(C)C3=C4c3ccc(I)cc3)ccc21	606
7. COc1ccc(/C=C/C=C/C2=NC3C(=O)NC(N)=NC3N2[C@H]2C[C@H](O)[C@@H](CO)O2)cc1 (some centres undefined)	352
8. Cc1nc2cc(/C=C/c3ccc(N(C)C)cc3)ccc2nc1-c1ccccc1	407
9. CCCCNC(=O)c1nc2c(N(C)C)nc(N(C)C)nc2n1Cc1ccccc1	333
10. CCC1=C(C)C2=Cc3c4ccccc4c4n3[B-](c3ccc5cc6ccccc6cc5c3)(Oc3ccccc3-4)[N+]2=C1C (centres undefined)	621
11. COc1c2ccccc2c(OC)c2c1c1cccc(OC)c1n2C	409
12. Cc1csc2[n+]1[B-](F)(F)OC(c1ccc(N(C)C)cc1)=N2	403
13. O=P1(c2ccccc2)C2=C(c3ccccc31)[Si](c1ccccc1)(c1ccccc1)c1cc(N(c3ccccc3)c3ccccc3)ccc12 (centres undefined)	456
14. CC(=O)c1ccc(/C=C/C=C/C2=NC3C(=O)NC(N)=NC3N2[C@H]2C[C@H](O)[C@@H](CO)O2)cc1 (some centres undefined)	392

* * *

Assay: solvent given as SMILES
Conditions: in CO
Cut-off 500 nm on absorption maximum, inclusive. At or above means YES; below means NO.

1) C#Cc1cccc2ccccc12	NO
2) Cc1ccccc1C1=C2C=c3c(oc4c3ccc3ccccc34)=[N+]2[B-](F)(F)n2c1cc1c3ccc4ccccc4c3oc12	YES
3) Cc1ccc(C2=C3C=CC(Nc4ccccc4)=[N+]3[B-](F)(F)n3c(Nc4ccccc4)ccc32)cc1	YES
4) N#Cc1ccc(-c2nc(-c3ccccc3)c3ccccn23)cc1	NO
5) N#Cc1ccc(-c2nc(-c3ccccc3)c(-c3ccccc3)[nH]2)cc1	NO
6) CCCCCCCCN1c2ccc(C#Cc3ccc(F)cc3)cc2Sc2cc(C=O)ccc21	NO
7) c1ccc(-c2nc(-c3ccc(-c4nc(-c5ccccc5)c(-c5ccccc5)[nH]4)s3)[nH]c2-c2ccccc2)cc1	NO
8) C#CCOc1ccc(/C=C/C2=[N+]3C(=C(c4ccc(N5CCCCC5)cc4)c4c(C)cc(C)n4[B-]3(F)F)C(C)=C2)cc1	YES
9) CN(C)c1ccc(/C=C/c2ccc(-c3nc(C#N)c(C#N)n3C)cc2)cc1	NO
10) Cn1c(=O)c(/N=N/c2ccc(S(=O)(=O)O)c3ccccc23)c(O)c2ccccc21	NO
11) C/C(=C\c1ccc(Cl)cc1)c1nc2ccccc2o1	NO
12) N#Cc1cccc(-c2nc(-c3ccccc3)c(-c3ccccc3)[nH]2)c1	NO
13) COc1ccc2c(c1)N(c1ccccc1-c1ccccc1)c1cc3c(cc1=N2)Oc1c(cc(C(C)(C)C)cc1C(C)(C)C)N=3	YES
14) F[B-]1(F)n2c(ccc2N2CCOCC2)C(c2ccccc2)=C2C=CC(N3CCOCC3)=[N+]21	YES
15) CN(C)CCN(Cc1c2ccccc2c(CN(CCN(C)C)c2ccc([N+](=O)[O-])cc2[N+](=O)[O-])c2ccccc12)c1ccc([N+](=O)[O-])cc1[N+](=O)[O-]	NO
16) c1ccc2c(-c3cc(-c4nccs4)nc(-c4nccs4)c3)cccc2c1	NO
17) CN(C)c1ccc(C#Cc2ccc3ccc4ccc(C#Cc5ccc(N(C)C)cc5)c5ccc2c3c45)cc1	NO
